Target: Acetylcholinesterase (Homo sapiens, UniProt P22303)
Sequence (P22303 whole entry): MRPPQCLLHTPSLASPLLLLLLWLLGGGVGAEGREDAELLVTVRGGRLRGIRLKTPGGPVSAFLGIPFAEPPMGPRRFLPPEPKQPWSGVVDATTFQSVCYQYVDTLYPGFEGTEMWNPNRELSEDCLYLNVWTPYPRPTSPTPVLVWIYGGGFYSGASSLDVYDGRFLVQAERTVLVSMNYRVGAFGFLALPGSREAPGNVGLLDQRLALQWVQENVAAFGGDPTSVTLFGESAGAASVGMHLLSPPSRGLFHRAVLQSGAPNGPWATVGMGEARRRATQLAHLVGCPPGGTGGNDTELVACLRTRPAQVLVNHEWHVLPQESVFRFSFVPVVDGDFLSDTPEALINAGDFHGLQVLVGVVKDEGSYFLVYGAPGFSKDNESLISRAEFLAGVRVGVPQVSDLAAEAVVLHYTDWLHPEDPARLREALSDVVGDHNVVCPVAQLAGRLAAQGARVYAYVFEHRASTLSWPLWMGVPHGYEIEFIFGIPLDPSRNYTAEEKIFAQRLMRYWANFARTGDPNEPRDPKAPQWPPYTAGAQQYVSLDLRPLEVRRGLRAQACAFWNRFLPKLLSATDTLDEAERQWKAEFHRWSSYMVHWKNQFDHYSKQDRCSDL
attribute_measured: pIC50
A value of pIC50 is the negative decimal logarithm of a concentration given in moles per litre.

I'd like to know its pIC50. The compound in question is COc1cc2c(cc1OC)C(=O)C(Oc1ccc(CN3CCCC3)cc1)C2 (stereo unspecified)
7.30

====

Biological target: Histamine H3 receptor (Homo sapiens)
Test: Inverse agonist activity at histamine H3 receptor expressed in HEK293 cells co-transfected with pCRE-Luc gene assessed as inhibition of forskolin/histamine-induced cAMP accumulation after 5 hrs by luciferase reporter gene assay
Type: functional, cell-based
Conditions: read-out: IC50
attribute_measured: pIC50
// pIC50 here means minus log10 of the molar concentration (mol/L)

Which pIC50 value is on record for Nc1nc2ccccc2nc1C(=O)Nc1ccc(CN2CCCC2)cc1 ?
6.42

====

Target: Acetylcholinesterase (Rattus norvegicus)
Assay: Inhibition of AChE in rat cortex homogenates using acetylthiocholine iodide as substrate after 15 mins by Ellman's method
Conditions: read-out: IC50
attribute_measured: pIC50
Scale: pIC50 equals -log10([C]), with [C] in mol/L.

Nc1nc2ccccc2nc1NCC(=O)Nc1ccc(CN2CCCCC2)cc1 : 5.94
Nc1nc2ccccc2nc1NCCOc1ccc(CN2CCCCC2)cc1 : 5.80

GET /values?readout=pIC50&item= Nc1nc2ccccc2nc1C(=O)Nc1ccc(CN2CCCCC2)cc1
6.05

// same read-out, input: Nc1nc2ccccc2nc1NCCCOc1ccc(CN2CCCCC2)cc1
5.71

Try Nc1nc2ccccc2nc1NCc1ccc(CN2CCCCC2)cc1 next.
6.32

Subsequent entry: Nc1nc2ccccc2nc1NCC(=O)NC1CCN(Cc2ccccc2)CC1
5.88

====

Molecular target: Histamine H3 receptor (Homo sapiens, UniProt Q9Y5N1)
Sequence (Q9Y5N1 whole entry): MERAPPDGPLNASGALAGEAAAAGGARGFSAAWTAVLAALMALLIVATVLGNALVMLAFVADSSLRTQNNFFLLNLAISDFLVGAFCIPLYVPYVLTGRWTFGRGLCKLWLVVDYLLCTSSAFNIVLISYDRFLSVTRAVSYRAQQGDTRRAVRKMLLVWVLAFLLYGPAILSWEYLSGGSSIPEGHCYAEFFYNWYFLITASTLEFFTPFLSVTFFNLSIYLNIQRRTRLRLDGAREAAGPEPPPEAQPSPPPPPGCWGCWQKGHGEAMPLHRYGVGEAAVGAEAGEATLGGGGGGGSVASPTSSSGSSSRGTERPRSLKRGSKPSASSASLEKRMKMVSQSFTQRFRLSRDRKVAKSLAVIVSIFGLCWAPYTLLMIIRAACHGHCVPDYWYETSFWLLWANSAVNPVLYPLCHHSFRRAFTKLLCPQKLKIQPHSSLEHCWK
Experiment: Antagonist activity at histamine H3 receptor expressed in HEK293 cells co-transfected with pCRE-Luc gene assessed as inhibition of forskolin/histamine-induced cAMP accumulation after 5 hrs by luciferase reporter gene assay
Format: functional, cell-based
Property: pIC50; scope: individual compounds
To interpret pIC50, take it as minus log10 of a concentration measured in moles per litre.

Reference set, count: 3
CCN(CC)Cc1ccc(OCCNc2nc3ccccc3nc2N)cc1 : 6.74
Nc1nc2ccccc2nc1C(=O)Nc1ccc(CN2CCCC2)cc1 : 6.59
Nc1nc2ccccc2nc1NCCOc1ccc(CN2CCCCC2)cc1 : 7.28

Here is another compound to look at.
// pIC50 lookup, key: Nc1nc2ccccc2nc1CNc1ccc(CN2CCCCC2)cc1
6.89

====

Target: Acetylcholinesterase (Rattus norvegicus)
Sequence (P37136 whole entry): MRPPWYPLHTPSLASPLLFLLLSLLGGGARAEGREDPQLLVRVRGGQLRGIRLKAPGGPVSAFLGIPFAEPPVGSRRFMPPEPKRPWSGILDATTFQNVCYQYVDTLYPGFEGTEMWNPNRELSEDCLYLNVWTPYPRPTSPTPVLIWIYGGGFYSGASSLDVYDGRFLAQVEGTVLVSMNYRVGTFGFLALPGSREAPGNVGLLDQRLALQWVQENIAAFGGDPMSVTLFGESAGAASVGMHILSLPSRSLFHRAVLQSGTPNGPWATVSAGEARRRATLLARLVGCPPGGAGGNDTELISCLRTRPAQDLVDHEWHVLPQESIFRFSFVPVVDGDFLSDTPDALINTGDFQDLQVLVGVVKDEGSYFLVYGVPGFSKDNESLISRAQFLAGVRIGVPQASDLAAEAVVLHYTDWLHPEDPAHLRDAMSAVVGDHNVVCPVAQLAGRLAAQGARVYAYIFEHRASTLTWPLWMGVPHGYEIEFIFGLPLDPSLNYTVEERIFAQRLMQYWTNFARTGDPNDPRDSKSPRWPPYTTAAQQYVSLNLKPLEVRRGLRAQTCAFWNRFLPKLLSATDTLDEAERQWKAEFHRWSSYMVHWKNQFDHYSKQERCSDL
Assay: Inhibition of AChE in rat cortex homogenates using acetylthiocholine iodide as substrate after 15 mins by Ellman's method
Settings: read-out: IC50
Measured pIC50 by item
FYI, pIC50 means -log10 of a concentration in mol per litre.

Examples with answers:
Nc1nc2ccccc2nc1/N=C/c1ccc(CN2CCCCC2)cc1 : 6.13
Nc1nc2ccccc2nc1C(=O)Nc1ccc(CN2CCCC2)cc1 : 5.82
Nc1nc2ccccc2nc1NCC(=O)Nc1ccc(CN2CCCC2)cc1 : 5.93

Now take the following molecule into account.
Looking for the measured pIC50 of CCN(CC)Cc1ccc(OCCNc2nc3ccccc3nc2N)cc1 , can you help?
5.41

====

Biological target: UniProt Q9H3N8
Sequence (Q9H3N8 whole entry): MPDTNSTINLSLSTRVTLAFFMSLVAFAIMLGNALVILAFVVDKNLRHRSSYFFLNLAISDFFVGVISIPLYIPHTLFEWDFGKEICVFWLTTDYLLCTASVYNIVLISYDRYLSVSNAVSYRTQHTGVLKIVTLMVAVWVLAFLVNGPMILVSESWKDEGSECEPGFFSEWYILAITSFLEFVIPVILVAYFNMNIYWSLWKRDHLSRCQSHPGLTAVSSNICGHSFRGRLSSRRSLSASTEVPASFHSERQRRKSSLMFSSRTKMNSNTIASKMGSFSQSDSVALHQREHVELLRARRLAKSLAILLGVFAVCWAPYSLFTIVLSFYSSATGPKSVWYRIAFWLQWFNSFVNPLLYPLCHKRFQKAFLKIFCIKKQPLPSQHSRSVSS
Assay: Antagonist activity at histamine H4 receptor expressed in HEK293 cells co-transfected with pCRE-Luc gene assessed as inhibition of forskolin/histamine-induced cAMP accumulation after 5 hrs by luciferase reporter gene assay
Assay type: functional, cell-based
Settings: hek293
pIC50: −log10 of the molar value.
attribute_measured: pIC50

Recorded pIC50 for Nc1nc2ccccc2nc1NC(=O)c1ccc(CN2CCCCC2)cc1 with UniProt Q9H3N8, please?
< 5.00
